Attribute: pIC50
System: Hep3B
Experiment: Cytotoxicity assay (cell titer-glo and calcein AM), Hep3B
Conditions: read-out: Cytotoxicity IC50, Hep 3B, calcein; Hep 3B; calcein AM readout; % error in parentheses
pIC50: −log10 of the molar value.

>  <COMPOUND>
COc1cc2c(c(OC)c1OC)-c1ccc(OC)c(=O)cc1[C@@H](NC(=O)CN(OC)[C@H]1C[C@@H](O)[C@H](O)[C@@H](CO)O1)CC2 [Col16, 2-deoxy-D-glucoside]

>  <VALUE PREFIX>
=

>  <pIC50>
5.84

$$$$
>  <COMPOUND>
CCCCCCCCCC(=O)N[C@@H]1[C@@H](O)[C@H](N(CC(=O)N[C@H]2CCc3cc(OC)c(OC)c(OC)c3-c3ccc(OC)c(=O)cc32)OC)O[C@H](CO)[C@H]1O [Col60, 3-deoxy-3-N-decanoyl-D-glucosaminoside]

>  <VALUE PREFIX>
<

>  <pIC50>
5.00

$$$$
>  <COMPOUND>
COc1cc2c(c(OC)c1OC)-c1ccc(OC)c(=O)cc1[C@@H](NC(=O)CN(OC)[C@@H]1O[C@H](CO)[C@@H](O)[C@H](O)[C@H]1F)CC2 [Col34, 2-fluoro-2-deoxy-D-glucoside]

>  <VALUE PREFIX>
=

>  <pIC50>
5.93

$$$$
>  <COMPOUND>
CCCCCCCCCC(=O)NC[C@H]1O[C@@H](N(CC(=O)N[C@H]2CCc3cc(OC)c(OC)c(OC)c3-c3ccc(OC)c(=O)cc32)OC)[C@H](O)[C@@H](O)[C@@H]1O [Col59, 6-deoxy-6-N-decanoyl-D-glucosaminoside]

>  <VALUE PREFIX>
=

>  <pIC50>
5.13

$$$$
>  <COMPOUND>
COc1cc2c(c(OC)c1OC)-c1ccc(OC)c(=O)cc1[C@@H](NC(=O)CN(OC)[C@@H]1O[C@H](CO)[C@H](O)[C@H](O)[C@H]1NC(C)=O)CC2 [Col28, N-acetyl-D-galactosaminoside]

>  <VALUE PREFIX>
<

>  <pIC50>
5.00

$$$$

---

Attribute: pIC50
System: NCI-H460
Assay: Cytotoxicity assay (cell titer-glo and calcein AM), NCI-H460
Conditions: read-out: Cytotoxicity IC50, NCI-H460, CTG; NCI-H460; CTG (cell titer-glo) readout; % error in parentheses
pIC50: −log10 of the molar value.
REPORTED ENDPOINT: pIC50

>  <COMPOUND>
COc1cc2c(c(OC)c1OC)-c1ccc(OC)c(=O)cc1[C@@H](NC(=O)CN(OC)[C@@H]1O[C@H](CN=[N+]=[N-])[C@H](O)[C@H](O)[C@H]1O)CC2 [Col43, 6-deoxy-6-azido-D-galactoside]

>  <REPORTED ENDPOINT>
pIC50

>  <VALUE PREFIX>
=

>  <REPORTED VALUE>
5.30

$$$$
>  <COMPOUND>
COc1cc2c(c(OC)c1OC)-c1ccc(OC)c(=O)cc1C(NC(=O)CN(OC)C1OC(COCc3ccccc3)C(OCc3ccccc3)C1OCc1ccccc1)CC2 (centres unmarked)

>  <REPORTED ENDPOINT>
pIC50

>  <VALUE PREFIX>
=

>  <REPORTED VALUE>
7.39

$$$$
>  <COMPOUND>
COc1cc2c(c(OC)c1OC)-c1ccc(OC)c(=O)cc1[C@@H](NC(=O)CN(OC)[C@@H]1O[C@H](C)[C@H](O)[C@H](O)[C@H]1O)CC2 [Col9, D-fucoside]

>  <REPORTED ENDPOINT>
pIC50

>  <VALUE PREFIX>
<

>  <REPORTED VALUE>
5.00

$$$$
>  <COMPOUND>
COc1cc2c(c(OC)c1OC)-c1ccc(OC)c(=O)cc1[C@@H](NC(=O)CN(OC)[C@@H]1O[C@H](CO)[C@@H](O[C@H]3O[C@H](CO)[C@@H](O)[C@H](O)[C@H]3O)[C@H](O)[C@H]1O)CC2 [Col38, D-maltoside]

>  <REPORTED ENDPOINT>
pIC50

>  <VALUE PREFIX>
=

>  <REPORTED VALUE>
6.95

$$$$
>  <COMPOUND>
CCCCCCCCCC(=O)NC[C@H]1O[C@@H](N(CC(=O)N[C@H]2CCc3cc(OC)c(OC)c(OC)c3-c3ccc(OC)c(=O)cc32)OC)[C@H](O)[C@@H](O)[C@@H]1O [Col59, 6-deoxy-6-N-decanoyl-D-glucosaminoside]

>  <REPORTED ENDPOINT>
pIC50

>  <VALUE PREFIX>
=

>  <REPORTED VALUE>
5.31

$$$$
>  <COMPOUND>
COc1cc2c(c(OC)c1OC)-c1ccc(OC)c(=O)cc1C(NC(=O)CN(OC)C1OC(C)C(O)C(O)C1O)CC2 [Col14, L-fucoside]

>  <REPORTED ENDPOINT>
pIC50

>  <VALUE PREFIX>
=

>  <REPORTED VALUE>
5.04

$$$$
>  <COMPOUND>
COc1cc2c(c(OC)c1OC)-c1ccc(OC)c(=O)cc1C(NC(=O)CN(OC)C1OCC(O)C(O)C1O)CC2 [Col25, L-arabinoside]

>  <REPORTED ENDPOINT>
pIC50

>  <VALUE PREFIX>
=

>  <REPORTED VALUE>
5.36

$$$$
>  <COMPOUND>
COc1cc2c(c(OC)c1OC)-c1ccc(OC)c(=O)cc1C(NC(=O)CN(OC)C1OCC(O)C(O)C1O)CC2 [Col22, L-riboside]

>  <REPORTED ENDPOINT>
pIC50

>  <VALUE PREFIX>
=

>  <REPORTED VALUE>
5.94

$$$$
>  <COMPOUND>
COc1cc2c(c(OC)c1OC)-c1ccc(OC)c(=O)cc1[C@@H](NC(=O)CN(OC)[C@@H]1OC[C@@H](O)[C@@H](O)[C@H]1O)CC2 [Col5, D-riboside]

>  <REPORTED ENDPOINT>
pIC50

>  <VALUE PREFIX>
=

>  <REPORTED VALUE>
5.30

$$$$
>  <COMPOUND>
COc1cc2c(c(OC)c1OC)-c1ccc(OC)c(=O)cc1[C@@H](NC(=O)CN(OC)[C@@H]1O[C@H](CCl)[C@H](O)[C@H](O)[C@H]1O)CC2 [Col41, 6-deoxy-6-chloro-D-galactoside]

>  <REPORTED ENDPOINT>
pIC50

>  <VALUE PREFIX>
=

>  <REPORTED VALUE>
5.26

$$$$
>  <COMPOUND>
CCCCCCCCCC(=O)N[C@@H]1[C@@H](O)[C@H](N(CC(=O)N[C@H]2CCc3cc(OC)c(OC)c(OC)c3-c3ccc(OC)c(=O)cc32)OC)O[C@H](CO)[C@H]1O [Col60, 3-deoxy-3-N-decanoyl-D-glucosaminoside]

>  <REPORTED ENDPOINT>
pIC50

>  <VALUE PREFIX>
=

>  <REPORTED VALUE>
5.40

$$$$
